Molecular target: Serine/threonine-protein phosphatase 5 (Homo sapiens) (UniProt P53041)
Sequence (P53041 whole entry, looked up): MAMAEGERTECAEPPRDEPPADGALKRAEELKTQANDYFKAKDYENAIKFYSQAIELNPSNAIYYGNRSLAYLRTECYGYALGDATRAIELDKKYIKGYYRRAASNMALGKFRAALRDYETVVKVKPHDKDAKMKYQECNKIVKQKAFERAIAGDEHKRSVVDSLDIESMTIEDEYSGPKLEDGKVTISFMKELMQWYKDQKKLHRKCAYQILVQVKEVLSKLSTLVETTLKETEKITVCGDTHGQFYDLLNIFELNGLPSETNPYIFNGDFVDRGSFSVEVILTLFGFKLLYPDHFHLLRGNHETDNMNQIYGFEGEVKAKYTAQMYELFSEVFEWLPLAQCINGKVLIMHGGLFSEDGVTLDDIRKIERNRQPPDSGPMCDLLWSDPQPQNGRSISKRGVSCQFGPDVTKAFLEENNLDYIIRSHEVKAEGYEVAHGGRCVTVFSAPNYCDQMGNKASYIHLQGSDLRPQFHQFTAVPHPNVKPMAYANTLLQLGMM
Experiment: PP5 phosphatase inhibitors, OMFP cleavage, confirmation, biochemical, fluorescence, round 5, powder samples (AID 624434)
Conditions: purified PP5c, OMFP dephosphorylation, at 50 µM, hits give high values
We use 10% as the dividing line for inhibition: on or above the line is 1.0, below is 0.0.

Does the molecule `O=C(O)c1n[nH]nc1Br` have recorded inhibition that is 10% or more?
1.0

Hi, just wondering whether `O=C(O)c1cnn(-c2ccccc2)n1` shows inhibition of 10% or higher.
0.0

// inclusive: inhibition at least 10%? input: `O=C(O)c1n[nH]nc1-c1ccc(F)cc1`
1.0

Say whether `O=C(O)c1n[nH]nc1C(=O)O` shows inhibition of 10% or more.
1.0

Please check the record `CC(C)Oc1ccccc1-c1n[nH]nc1C(=O)O` and state if its inhibition is at or above 10%.
1.0

Does `O=C(O)c1n[nH]nc1-c1ccccc1-c1ccccc1` have a reported inhibition of at least 10%?
1.0

Decide: is the reported value of inhibition for `O=C(O)c1n[nH]nc1-c1ccccc1O` equal to or greater than 10%?
1.0

Identify whether the reported inhibition of the following molecule is 10% or greater: `CCOc1ccccc1-c1n[nH]nc1C(=O)O`
1.0

Answer whether inhibition of `NC(=O)c1n[nH]nc1-c1ccccc1` is greater than or equal to 10%.
0.0

Quick check: does `O=C(O)c1[nH]ccc1-c1ccccc1` have inhibition greater than or equal to 10%?
1.0

Check this molecule for inhibition at or above 10%: `O=Cc1n[nH]nc1-c1ccccc1`
0.0

Could you tell me if the measured inhibition of `O=C(O)c1n[nH]nc1-c1cccnc1` reaches 10% or more?
0.0

Is reported inhibition greater than or equal to 10% here: `CNC(=O)c1n[nH]nc1-c1ccccc1`
0.0

Quick check: does `c1ccc(-c2n[nH]nc2-c2nn[nH]n2)cc1` have inhibition greater than or equal to 10%?
0.0

Reference source for all entries: PubChem BioAssay AID624434
